# Test system: ganglionic-type neuronal nicotinic receptors (rat pheochromocytoma clonal line PC12)
# Type: cell-based
# condition context: read-out: RAT GANGLIA EC50 (concentration resulting in half maximal activation of specific ion flux); rat ganglia, PC12, 86Rb+ efflux, 4 minutes at 20° C.
# Experimental: The selectivity at muscle nicotinic receptors of the various analogs described in this invention was determined by their functional efficacies and potencies at muscle and ganglionic sites. […] The medium was removed and ^86 Rb^+ was quantitated using Cerenkov detection. […] Specific ion efflux was determined as the difference in isotope efflux between total and non-specific efflux samples. […]
Where a name gives a salt, the structure may show the parent alone.
value type: EC50 (µM)

>>> observed_result("c1cncc(C2=NCCCC2)c1 [Sample No. 3, anabaseine dihydrochloride]")
50
